# System: M. tuberculosis H37Rv mutant 5I (amiC + g in aa352)
# Assay type: cell-based, Mycobacterium tuberculosis
quantity-name: MIC (µM)
Your answer is read as µM, so omit the unit and give the number.

These solved cases illustrate the format of a correct answer.
compound	numeric-value
O=C(COc1ccccc1)Nc1cccc2[nH]ccc12 [C2, N-(1H-indol-4-yl)-2-phenoxyacetamide]	75
NNC(=O)c1ccncc1 [INH, isoniazid, reference compound]	0.12

// lookup MIC | system=M. tuberculosis H37Rv mutant 5I (amiC + g in aa352) | key= Nc1cccc2[nH]ccc12 [4-AI, 4-aminoindole, reference compound]
4.68

What would you report for `O=C(Nc1cccc2[nH]ccc12)c1ccc(OCC(F)(F)F)cn1` ?
75

What would you report for CNS(=O)(=O)c1ccc2c(c1)CCN2C(=O)c1ccc(C)s1 [C5, reference compound] ?
0.39
